Test: Tissue distribution of SDC-TRAP and degradation products in tumor-bearing mice (plasma, tumor, heart)
Assay type: in vivo, Female SCID Mouse (H1975)
Details: female, SCID, mouse, in vivo; read-out: Tumor/Plasma Ratio
Quantity kind: Kp at 1 h
Give the figure by itself; no unit, no explanation.

The reported value for CCNC(=O)c1nnc(-c2cc(C(C)C)c(O)cc2O)n1-c1ccc(C(=O)N2CCN(c3cc(C)c(OC(=O)Nc4cccc5c4CN(C4CCC(=O)NC4=O)C5=O)c(C)c3)CC2)cc1 (stereo not shown) in terms of Kp at 1 h is 1.59

----------
Test: Tissue distribution of SDC-TRAP and degradation products in tumor-bearing mice (plasma, tumor, heart)
Format: in vivo, Female SCID Mouse (H1975)
Conditions: female, SCID, mouse, in vivo; tissue distribution of SDC-TRAP-0046; 12 h; read-out: Plasma Conc.
Quantity kind: concentration at 12 h (nM)
Entry rule: numbers only, all in nM.

The compound listed as CCc1c2c(nc3ccc(OC(=O)N4CCN(Cc5ccc(-n6c(O)nnc6-c6cc(C(C)C)c(O)cc6O)cc5)CC4)cc13)-c1cc3c(c(=O)n1C2)COC(=O)C3(O)CC (stereo not shown) [SDC-TRAP-0046] has a reported concentration at 12 h of 54.2

Reference for the values: patent US20200316090A1
